Data provenance is paper PMC9403976.

test system: P. falciparum Dd2-2D4; assay: P. falciparum asexual blood stage (ABS) growth assay, SYBR Green, 72 h, wild-type parasites; format: cell-based, Plasmodium falciparum; conditions: Plasmodium falciparum, DD2; SI Fig 16b; values on -log scale; read-out: ABS - Dd2-2D4 (converted)
Each entry below carries its reported EC50.

COMPOUND: O=C(O)CCCC(=O)Nc1nccnc1C(=O)NC1Cc2ccccc2C1
EC50 (µM): 12.3

COMPOUND: Nc1nccnc1C(=O)NC1CCCCC1
EC50 (µM): 8.75

COMPOUND: Nc1ncnc2c1ncn2[C@@H]1O[C@H](COS(=O)(=O)NC(=O)[C@@H]2CCCN2)[C@@H](O)[C@H]1O [ProSA, reference compound]
EC50 (µM): 0.151

COMPOUND: O=C(NC1Cc2ccccc2C1)c1nccnc1NC(=O)C1(O)CCCCC1
EC50 (µM): 1.5
